meta.source: patent US20120010075A1

- Tested on: Leptosphaeria nodorum (LEPTNO)
- test summary: In vitro fungitoxicity of hydrazones with and without copper towards Leptosphaeria nodorum (Example 26)
- Type: cell-based
- details: copper-plus medium (CuCl2 10 μM); test compound Concn. 0.05 μg/mL; 72 h at 25° C.
endpoint: LEPTNO % Inhn. Plus Copper Observed (%)
Value expressed in %; do not type the unit.

C/C(=N\NC(=O)c1ccccc1C)c1cc(Br)cc(Br)c1O ... 97.5
Cc1cccc(C(=O)N/N=C/c2cc(C(F)(F)F)cc(Cl)c2O)c1 ... 96.6
O=C(N/N=C/c1cc(Cl)cc(Cl)c1O)c1cc2ccccc2cc1O ... 96.9
C/C(=N\NC(=O)c1ccccc1O)c1cc(Cl)cc(Cl)c1O ... 97.8
COc1ccc(C(=O)N/N=C(\C)c2cc(Br)ccc2O)cc1 ... 97.9
O=C(N/N=C/c1cc(C(F)(F)F)ccc1O)c1cccc(F)c1 ... 97.0
C/C(=N\NC(=O)c1ccc(C)cc1)c1cc(Br)cc(Br)c1O ... 95.8
O=C(N/N=C/c1cc(Cl)cc(C(F)(F)F)c1O)c1cccc([N+](=O)[O-])c1 ... 98.5

As a next step, examine the molecule that follows.
Please give the measured LEPTNO % Inhn. Plus Copper Observed for this molecule: O=C(N/N=C/c1cc(Cl)cc(Cl)c1O)c1cc(Cl)ccc1O
97.1
